B1: DnaJ homolog subfamily C member 5, residues 16 to 77; numbered along this chain, Q9H3Z4 (parent)
chain: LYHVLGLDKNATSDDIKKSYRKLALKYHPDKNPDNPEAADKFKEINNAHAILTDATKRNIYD

variants of: B1; assay: abundance fitness (aPCA) (normalised: wild type 0, dead -1); higher = more abundant; growth selection in yeast, the domain comes from the species named; details: Homo sapiens
Classes by abundance fitness: c1 = under -0.4, c2 = from -0.4 up to -0.09, c3 = -0.09 and over

>>> classification("T56Y")
"c1"
>>> classification("F42D")
"c2"
>>> classification("N10F")
"c2"

Input: Dear colleague, I would appreciate it if you could identify the bin for `A55M` and reply at your convenience.
Output: c2

Input: Dear colleague, I would appreciate it if you could identify the bin for `T53D` and reply at your convenience.
Output: c2
